test system: COLO 205 colon; experiment: NCI tumour cell line growth inhibition, 48 h
Reported GI50 by item:
metricName: GI50

- structure: "CC(=O)[CH-]C(=O)c1ccccc1.CC(=O)[CH-]C(=O)c1ccccc1.CC(=O)[CH-]C(=O)c1ccccc1.[Nd+3].[OH3+]"
  metricName: "GI50"
  dataValue: "47.3 µM"
- structure: "COc1cccc(Nc2nc3ccccc3c3occc23)c1"
  metricName: "GI50"
  dataValue: "9.49 µM"
- structure: "Clc1ccccc1-c1nnc2c(Cc3ccccc3)nc3ccccc3n12"
  metricName: "GI50"
  dataValue: "> 29.6 µM"
- structure: "c1ccc(CNCCN(CCNCc2ccccn2)Cc2ccc3ccccc3c2)nc1"
  metricName: "GI50"
  dataValue: "2.27 µM"

====

test system: OVCAR-4 ovarian; experiment: NCI tumour cell line growth inhibition, 48 h
metricName: TGI

- compound: "CCC(C)[C@@H](Nc1c(O)c2c(c(O)c1Cl)C(=O)C=CC2=O)C(=O)OC (stereo partly drawn)"
  metricName: "TGI"
  dataValue: "8.12 µM"
- compound: "CCOc1ccccc1N=Nc1c(-c2ccccc2)nn(C(=O)CC(=O)Nc2cccc(C)c2)c1-c1ccccc1"
  metricName: "TGI"
  dataValue: "> 100 µM"
- compound: "CCOP(=O)(OCC)C(C(=O)OC)C(=O)C(=O)Nc1cccc(O)c1 (stereo not drawn)"
  metricName: "TGI"
  dataValue: "> 100 µM"
- compound: "CCN(Cc1cccc(Cl)c1)c1ccc(CO)c(Cl)c1"
  metricName: "TGI"
  dataValue: "9.87 µM"
- compound: "Cc1cc2c(-c3nc4ccccn4c3N)c(O)c(O)cc2c(O)c1-c1c(C)cc2c(-c3nc4ccccn4c3N)c(O)c(O)cc2c1O"
  metricName: "TGI"
  dataValue: "> 25 µM"
- compound: "CCCCCc1c(CCCC)c(=O)[nH]c2nc(NC(=O)CCCC)ccc12"
  metricName: "TGI"
  dataValue: "> 100 µM"
- compound: "Cc1cc(=O)oc2cc(OCC(O)COC(C)C)ccc12 (stereo not drawn)"
  metricName: "TGI"
  dataValue: "> 100 µM"
- compound: "CN(CCCNC(=O)c1cn(C)c2c1Cc1ccccc1-2)CCCNC(=O)c1cn(C)c2c1Cc1ccccc1-2"
  metricName: "TGI"
  dataValue: "26.8 µM"
- compound: "CC(=O)OCC1OC(n2c3c(c(-c4ccc(Cl)cc4)c(C#N)c2=S)CCCC3)C(OC(C)=O)C(OC(C)=O)C1OC(C)=O (stereo not drawn)"
  metricName: "TGI"
  dataValue: "> 100 µM"
- compound: "Nc1ncnc2c1ncn2C1CCC(CP(=O)(O)O)C1 (stereo not drawn)"
  metricName: "TGI"
  dataValue: "> 100 µM"
- compound: "CC(C)CC(N)C(=O)Nc1ccc2ccccc2c1 (stereo not drawn)"
  metricName: "TGI"
  dataValue: "54.5 µM"
- compound: "C/C(=N\\NC(=O)c1ccccc1O)c1cccc(/C(C)=N/NC(=O)c2ccccc2O)n1.O=S(=O)([O-])[O-].[Fe+2]"
  metricName: "TGI"
  dataValue: "> 100 µM"
- compound: "Cn1c2ccccc2c(=O)c2c(O)cc3c(c21)C=CC(C)(C)O3"
  metricName: "TGI"
  dataValue: "> 25 µM"
- compound: "O=C(CCN1CCCCC1)N1CCc2c([nH]c3ccccc23)C1c1cccnc1 (stereo not drawn)"
  metricName: "TGI"
  dataValue: "> 100 µM"
- compound: "CC(=O)N1N=C(c2ccc(Nc3nc(Nc4ccc(F)cc4)nc(Nc4ccc(F)cc4)n3)cc2)CC1c1ccc(N(C)C)cc1 (stereo not drawn)"
  metricName: "TGI"
  dataValue: "> 100 µM"
- compound: "CCCc1cc(COC)c(C#N)c(=O)[nH]1"
  metricName: "TGI"
  dataValue: "> 100 µM"
- compound: "CCOC(=O)c1nc2ccc(C(F)(F)F)cc2nc1NCc1ccc(OC)c(OC)c1"
  metricName: "TGI"
  dataValue: "> 100 µM"
- compound: "CC(=O)[C@H]1CCC2[C@@H]3CC=C4C[C@@H]([O-])CC[C@]4(C)C3CC[C@@]21C.CC(=O)[C@H]1CCC2[C@@H]3CC=C4C[C@@H]([O-])CC[C@]4(C)C3CC[C@@]21C.CC(=O)[CH-]C(=O)c1ccccc1.CC(=O)[CH-]C(=O)c1ccccc1.Cl.[Ti+4] (stereo partly drawn)"
  metricName: "TGI"
  dataValue: "> 100 µM"

====

tested on: RXF 393 renal; experiment: NCI tumour cell line growth inhibition, 48 h

- molecule: "NC1CCC(N(CC(=O)O)CC(=O)O)C(N(CC(=O)O)CC(=O)O)C1 (stereo not given)"
  comparisonSymbol: ">"
  TGI, µM: 100
- molecule: "CC1C2C=C(O)C(=O)C(C2=O)C1c1ccccc1 (stereo not given)"
  comparisonSymbol: ">"
  TGI, µM: 100
- molecule: "NC1=NN(c2ccccc2)C(=O)C1C(=O)C(=O)Nc1ccc(Cl)c(Cl)c1 (stereo not given)"
  comparisonSymbol: ">"
  TGI, µM: 100
- molecule: "CC(=O)c1cc(C(=O)c2ccc3c(c2)Sc2ccccc2N3)n2ccccc12"
  comparisonSymbol: "="
  TGI, µM: 20.5
- molecule: "CC1=CC[C@@]2(C)CC[C@](O)(C(C)C)C2C(OC(=O)c2ccccc2)C1 (stereo not given in full)"
  comparisonSymbol: "="
  TGI, µM: 27.3

====

Reported GI50 by item:
tested on: OVCAR-4 ovarian; assay: NCI tumour cell line growth inhibition, 48 h
metricName: GI50

- molecule: "C=CCC(N[C@H](CO)c1ccccc1)c1cn(Cc2ccccc2Cl)c(=O)n(Cc2ccccc2Cl)c1=O (some centres undefined)"
  metricName: "GI50"
  dataValue: "26.6 µM"
- molecule: "Clc1ccccc1-c1nnc2c(Cc3ccccc3)nc3ccccc3n12"
  metricName: "GI50"
  dataValue: "5.55 µM"
- molecule: "CC(=O)N1N=C(c2ccc(Nc3nc(Nc4ccc(F)cc4)nc(Nc4ccc(F)cc4)n3)cc2)CC1c1ccc(N(C)C)cc1 (centres undefined)"
  metricName: "GI50"
  dataValue: "3.77 µM"
- molecule: "CC(=O)[CH-]C(=O)c1ccccc1.CC(=O)[CH-]C(=O)c1ccccc1.CC(=O)[CH-]C(=O)c1ccccc1.[Nd+3].[OH3+]"
  metricName: "GI50"
  dataValue: "93.8 µM"

====

test system: RXF 393 renal; assay: NCI tumour cell line growth inhibition, 48 h
Outcome: criterion met for TGI of at least 7 µM; criterion not met for anything lower.

- compound: "CC1NC(=O)C2=C1C(=O)NC(=O)C2 (centres undefined)"
  testSystem: "RXF 393 renal"
  classification: "criterion met"
- compound: "COC(=O)/C=C1/OC(c2ccccc2)=C(C)C1=O"
  testSystem: "RXF 393 renal"
  classification: "criterion met"
- compound: "CC(C)=CCC[C@@H](C)C1=C(O)C(Nc2ccccc2Cl)=C(C)C(=O)C1=O"
  testSystem: "RXF 393 renal"
  classification: "criterion met"
- compound: "Cc1nc2c(o1)C(=Nc1ccccc1)c1nc(C)oc1C2=Nc1ccccc1"
  testSystem: "RXF 393 renal"
  classification: "criterion met"
- compound: "COc1ccc(-c2c3c(n(C4OC(CO)C(O)C(O)C4O)c(=S)c2C#N)CCCC3)cc1 (centres undefined)"
  testSystem: "RXF 393 renal"
  classification: "criterion met"
- compound: "O=C(c1ccccc1)N1CCC(CC2(c3cc4ccccc4[nH]3)OCCO2)CC1"
  testSystem: "RXF 393 renal"
  classification: "criterion met"
- compound: "COc1ccc(/C=C2/SC(Nc3nc(-c4nc(NC5=NC(=O)/C(=C\\c6ccc(OC)cc6)S5)sc4C)c(C)s3)=NC2=O)cc1"
  testSystem: "RXF 393 renal"
  classification: "criterion met"
- compound: "COc1ccc2c(c1)/C(=C\\c1c(Cl)[nH]c3ccccc13)C(=O)N2"
  testSystem: "RXF 393 renal"
  classification: "criterion met"
- compound: "CC(=O)C1=C(O)C=C2Oc3c(C(=O)/C=C/c4cc(Cl)cc(Cl)c4)c(O)c(C)c(O)c3[C@]2(C)C1=O"
  testSystem: "RXF 393 renal"
  classification: "criterion not met"
- compound: "O=C1C=CC(=O)c2c(O)c3c(c(O)c21)C[C@H](O)[C@H](O)[C@@H]3O"
  testSystem: "RXF 393 renal"
  classification: "criterion not met"
- compound: "Clc1cccc(C2N3CCCCC3[C@@H]3c4[nH]c5ccccc5c4CCN23)c1 (some centres undefined)"
  testSystem: "RXF 393 renal"
  classification: "criterion met"
- compound: "CN(/N=C/c1ccnc2ccccc12)c1c([N+](=O)[O-])cc([N+](=O)[O-])cc1[N+](=O)[O-]"
  testSystem: "RXF 393 renal"
  classification: "criterion met"
- compound: "CSc1nc2c(c(=O)n1C)N=C(c1ccc([N+](=O)[O-])cc1)CC(c1ccccc1)N2 (centres undefined)"
  testSystem: "RXF 393 renal"
  classification: "criterion met"
- compound: "COc1c(C(=O)NCCN(CCNC(=O)c2cccc(-c3cccc(C(=O)N(C)C)c3OC)c2OC)CCNC(=O)c2cccc(-c3cccc(C(=O)N(C)C)c3OC)c2OC)cccc1-c1cccc(C(=O)N(C)C)c1OC"
  testSystem: "RXF 393 renal"
  classification: "criterion met"
- compound: "C=CCOC(=O)C1=C(C)NC2=N[C@H](CCCCCCCCC)C[C@@H]3CCC1N23 (some centres undefined)"
  testSystem: "RXF 393 renal"
  classification: "criterion met"
- compound: "C/C=C1\\CN2CCc3c([nH]c4ccccc34)C2CC1CCO (centres undefined)"
  testSystem: "RXF 393 renal"
  classification: "criterion met"
- compound: "CC(=O)c1ccc2c(c1)CC1(C2)Cc2cc3c(c(C(=O)O)c2C1)CCC3 (centres undefined)"
  testSystem: "RXF 393 renal"
  classification: "criterion met"
- compound: "CCC1(c2ccc(N3C(=O)c4cc(OC)c(OC)cc4C3=O)cc2)CCC(=O)NC1=O (centres undefined)"
  testSystem: "RXF 393 renal"
  classification: "criterion met"
- compound: "CN1CCN(Cc2ccc(NC(=O)c3cncc(C#Cc4cnc(N)c5cccnc45)c3)cc2C(F)(F)F)CC1"
  testSystem: "RXF 393 renal"
  classification: "criterion not met"
